tested-on: recombinant DENV2 NS2BNS3 protease (Dengue virus type 2)
Sequence (P29990 1398-1437): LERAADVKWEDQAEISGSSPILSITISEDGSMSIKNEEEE
Sequence (P29990 1476-1653): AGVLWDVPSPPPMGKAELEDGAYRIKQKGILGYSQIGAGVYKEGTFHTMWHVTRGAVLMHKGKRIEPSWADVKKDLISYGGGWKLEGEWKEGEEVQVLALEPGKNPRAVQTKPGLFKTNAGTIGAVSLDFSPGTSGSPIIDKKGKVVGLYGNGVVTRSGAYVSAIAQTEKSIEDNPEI
assay-explanation: DENV2 NS2BNS3 protease inhibition assay (fluorogenic Bz-Nle-Lys-Arg-Arg-AMC substrate)
Type: biochemical
condition-info: single dose 50 μM BIT, 100 nM protease
Attribute: inhibition at 50 µM

compound	inhibition at 50 µM
O=c1c2ccccc2sn1-c1ccc(Br)cc1 [Compound 5k]	80%
O=c1c2ccccc2sn1-c1ccccc1[N+](=O)[O-] [Compound 5h]	~70%
O=c1c2ccccc2sn1-c1ccccc1O [Compound 5l]	≥ 90%
COc1ccc(-n2sc3ccccc3c2=O)cc1 [Compound 5o]	58%
O=c1c2ccccc2sn1-c1c(Cl)cccc1Cl [Compound 5n]	> 90%
O=c1c2ccccc2sn1-c1ccccc1Cl [Compound 5m]	> 90%
Cc1cc([N+](=O)[O-])ccc1-n1sc2ccccc2c1=O [Compound 5j]	> 90%

Reference source: paper PMC8070447
